TARGET OR TEST SYSTEM: human glycogen phosphorylase a (Homo sapiens)
Sequence (P06737 whole entry): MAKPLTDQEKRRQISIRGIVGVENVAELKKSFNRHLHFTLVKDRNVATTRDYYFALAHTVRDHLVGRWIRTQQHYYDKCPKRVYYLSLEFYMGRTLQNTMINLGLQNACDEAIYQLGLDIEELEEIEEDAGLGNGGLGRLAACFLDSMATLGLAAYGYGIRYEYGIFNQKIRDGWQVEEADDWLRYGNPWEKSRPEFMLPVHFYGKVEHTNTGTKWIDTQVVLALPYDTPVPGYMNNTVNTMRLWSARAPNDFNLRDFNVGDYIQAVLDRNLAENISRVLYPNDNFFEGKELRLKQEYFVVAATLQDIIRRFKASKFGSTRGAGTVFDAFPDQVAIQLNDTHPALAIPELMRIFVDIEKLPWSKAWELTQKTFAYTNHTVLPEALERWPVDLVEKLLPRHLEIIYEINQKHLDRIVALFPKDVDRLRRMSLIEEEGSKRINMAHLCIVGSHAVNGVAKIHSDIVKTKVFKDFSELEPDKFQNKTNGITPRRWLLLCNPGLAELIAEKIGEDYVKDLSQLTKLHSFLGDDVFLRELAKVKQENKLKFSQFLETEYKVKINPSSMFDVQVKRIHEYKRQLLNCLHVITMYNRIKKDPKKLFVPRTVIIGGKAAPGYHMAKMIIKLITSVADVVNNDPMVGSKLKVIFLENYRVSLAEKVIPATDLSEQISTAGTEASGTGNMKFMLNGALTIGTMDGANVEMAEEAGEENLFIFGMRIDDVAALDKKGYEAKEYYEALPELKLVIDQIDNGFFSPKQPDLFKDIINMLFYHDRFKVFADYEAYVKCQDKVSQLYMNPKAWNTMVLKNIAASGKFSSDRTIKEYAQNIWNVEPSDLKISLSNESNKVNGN
ASSAY EXPLANATION: Glycogen phosphorylase a activity test
Type: biochemical
ASSAY CONTEXT: 10 μM test substance; GPa measured in reverse direction (glycogen synthesis from glucose 1-phosphate)
Let's look at some compounds and their measured % Inhibition at 10 μM.
EXPERIMENTAL READOUT: % Inhibition at 10 μM

INSERT INTO results (chem_smiles, target_or_test_system, experimental_result) VALUES
  ('CNCC(=O)Nc1ccc(OC)c(NC(=O)NC(=O)c2cc(F)c(F)cc2Cl)c1', 'human glycogen phosphorylase a (Homo sapiens)', '100%'),
  ('COC(=O)C(=O)Nc1cc(NC(=O)NC(=O)c2cc(F)c(F)cc2Cl)c(OC)cc1C', 'human glycogen phosphorylase a (Homo sapiens)', '101%'),
  ('CCOC(=O)CCC(=O)Nc1ccc(OC)c(NC(=O)NC(=O)c2cc(F)c(F)cc2Cl)c1', 'human glycogen phosphorylase a (Homo sapiens)', '97%'),
  ('COc1ccc(NC(=O)CCCN)cc1NC(=O)NC(=O)c1cc(F)c(F)cc1Cl', 'human glycogen phosphorylase a (Homo sapiens)', '100%'),
  ('COc1ccc(NC(=O)CCC(N)=O)cc1NC(=O)NC(=O)c1cc(F)c(F)cc1Cl', 'human glycogen phosphorylase a (Homo sapiens)', '100%'),
  ('O=C(O)CCC(=O)Nc1cccc(NC(=O)NC(=O)c2ccc(Cl)cc2Cl)c1', 'human glycogen phosphorylase a (Homo sapiens)', '86%'),
  ('NCCCC(=O)Nc1cccc(NC(=O)NC(=O)c2ccc(Cl)cc2Cl)c1', 'human glycogen phosphorylase a (Homo sapiens)', '80%'),
  ('CCOCC(=O)Nc1ccc(OC)c(NC(=O)NC(=O)c2cc(F)c(F)cc2Cl)c1', 'human glycogen phosphorylase a (Homo sapiens)', '103%'),
  ('COc1ccc(NC(=O)CCC(=O)O)cc1NC(=O)NC(=O)c1cc(F)c(F)cc1Cl', 'human glycogen phosphorylase a (Homo sapiens)', '100%'),
  ('COC(=O)C(=O)Nc1ccc(Cl)c(NC(=O)NC(=O)c2cc(F)c(F)cc2Cl)c1', 'human glycogen phosphorylase a (Homo sapiens)', '96%'),
  ('COc1cc(C(=O)O)c(NC(=O)C(=O)O)cc1NC(=O)NC(=O)c1cc(F)c(F)cc1Cl', 'human glycogen phosphorylase a (Homo sapiens)', '95%'),
  ('O=C(O)CCC(=O)Nc1ccc(Cl)c(NC(=O)NC(=O)c2ccc(Cl)cc2Cl)c1', 'human glycogen phosphorylase a (Homo sapiens)', '97%'),
  ('COc1cc(C(=O)O)c(NC(=O)CCC(=O)O)cc1NC(=O)NC(=O)c1cc(F)c(F)cc1Cl', 'human glycogen phosphorylase a (Homo sapiens)', '97%'),
  ('COc1cc(C)c(NC(C)=O)cc1NC(=O)NC(=O)c1cc(F)c(F)cc1Cl', 'human glycogen phosphorylase a (Homo sapiens)', '91%'),
  ('COC(=O)CC(=O)Nc1ccc(N(C)C)c(NC(=O)NC(=O)c2cc(F)c(F)cc2Cl)c1', 'human glycogen phosphorylase a (Homo sapiens)', '98%'),
  ('COc1ccc(NC(=O)c2cccc(F)c2)cc1NC(=O)NC(=O)c1cc(F)c(F)cc1Cl', 'human glycogen phosphorylase a (Homo sapiens)', '97%'),
  ('COc1ccc(NC(=O)c2ccccc2F)cc1NC(=O)NC(=O)c1cc(F)c(F)cc1Cl', 'human glycogen phosphorylase a (Homo sapiens)', '101%'),
  ('COc1ccc(NC(C)=O)cc1NC(=O)NC(=O)c1ccc(Cl)cc1Cl', 'human glycogen phosphorylase a (Homo sapiens)', '102%'),
  ('O=C(NC(=O)c1cc(F)c(F)cc1Cl)Nc1cc(NC(=O)C(=O)O)ccc1Cl', 'human glycogen phosphorylase a (Homo sapiens)', '97%'),
  ('COc1ccc(NC(=O)C(F)F)cc1NC(=O)NC(=O)c1cc(F)c(F)cc1Cl', 'human glycogen phosphorylase a (Homo sapiens)', '100%'),
  ('CCOC(=O)c1cc(OC)c(NC(=O)NC(=O)c2cc(F)c(F)cc2Cl)cc1NC(C)=O', 'human glycogen phosphorylase a (Homo sapiens)', '95%'),
  ('COc1cc(C(=O)O)c(NC(C)=O)cc1NC(=O)NC(=O)c1cc(F)c(F)cc1Cl', 'human glycogen phosphorylase a (Homo sapiens)', '97%'),
  ('COC(=O)CCC(=O)Nc1ccc(OC)c(NC(=O)NC(=O)c2cc(F)c(F)cc2Cl)c1', 'human glycogen phosphorylase a (Homo sapiens)', '97%'),
  ('C=CCCC(=O)Nc1ccc(OC)c(NC(=O)NC(=O)c2cc(F)c(F)cc2Cl)c1', 'human glycogen phosphorylase a (Homo sapiens)', '102%'),
  ('COc1cc(C)c(NC(=O)NC(=O)c2cc(F)c(F)cc2Cl)cc1NC(=O)CC(=O)O', 'human glycogen phosphorylase a (Homo sapiens)', '96%'),
  ('COC(=O)CC(=O)Nc1ccc(OC(F)(F)F)c(NC(=O)NC(=O)c2cc(F)c(F)cc2Cl)c1', 'human glycogen phosphorylase a (Homo sapiens)', '100%'),
  ('COc1ccc(NC(=O)C2CC2)cc1NC(=O)NC(=O)c1cc(F)c(F)cc1Cl', 'human glycogen phosphorylase a (Homo sapiens)', '98%'),
  ('COc1ccc(NC(=O)C(=O)O)cc1NC(=O)NC(=O)c1cc(F)c(F)cc1Cl', 'human glycogen phosphorylase a (Homo sapiens)', '99%'),
  ('O=C(O)CCC(=O)Nc1ccc(Cl)c(NC(=O)NC(=O)c2cc(F)c(F)cc2Cl)c1', 'human glycogen phosphorylase a (Homo sapiens)', '100%'),
  ('CN(C)c1ccc(NC(=O)CC(=O)O)cc1NC(=O)NC(=O)c1cc(F)c(F)cc1Cl', 'human glycogen phosphorylase a (Homo sapiens)', '99%'),
  ('CC=CC(=O)Nc1ccc(OC)c(NC(=O)NC(=O)c2cc(F)c(F)cc2Cl)c1', 'human glycogen phosphorylase a (Homo sapiens)', '99%'),
  ('COc1ccc(NC(=O)c2ccccc2OC(F)(F)F)cc1NC(=O)NC(=O)c1cc(F)c(F)cc1Cl', 'human glycogen phosphorylase a (Homo sapiens)', '92%'),
  ('COc1ccc(NC(=O)CN)cc1NC(=O)NC(=O)c1cc(F)c(F)cc1Cl', 'human glycogen phosphorylase a (Homo sapiens)', '101%');
